# Study target: T1, IL10Rα and IL2Rγ on human primary cells (CD8 T cells, CD4 T cells, monocytes) (human) (UniProt Q13651)
# T1 sequence (looked up) 1: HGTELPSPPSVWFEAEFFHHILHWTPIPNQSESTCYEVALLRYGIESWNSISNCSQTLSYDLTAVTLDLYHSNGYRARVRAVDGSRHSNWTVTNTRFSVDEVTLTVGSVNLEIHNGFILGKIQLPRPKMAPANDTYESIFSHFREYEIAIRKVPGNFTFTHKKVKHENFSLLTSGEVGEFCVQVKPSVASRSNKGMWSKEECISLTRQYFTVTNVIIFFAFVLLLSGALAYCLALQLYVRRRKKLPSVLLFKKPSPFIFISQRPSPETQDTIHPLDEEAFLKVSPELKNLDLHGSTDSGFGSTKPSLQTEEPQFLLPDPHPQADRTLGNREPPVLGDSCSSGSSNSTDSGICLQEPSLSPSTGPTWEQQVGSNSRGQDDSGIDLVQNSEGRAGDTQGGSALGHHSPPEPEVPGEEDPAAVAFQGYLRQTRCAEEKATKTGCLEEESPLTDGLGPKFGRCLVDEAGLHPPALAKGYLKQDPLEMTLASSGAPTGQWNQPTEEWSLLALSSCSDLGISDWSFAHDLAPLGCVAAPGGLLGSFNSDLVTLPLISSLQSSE
# T1 sequence (looked up) 2: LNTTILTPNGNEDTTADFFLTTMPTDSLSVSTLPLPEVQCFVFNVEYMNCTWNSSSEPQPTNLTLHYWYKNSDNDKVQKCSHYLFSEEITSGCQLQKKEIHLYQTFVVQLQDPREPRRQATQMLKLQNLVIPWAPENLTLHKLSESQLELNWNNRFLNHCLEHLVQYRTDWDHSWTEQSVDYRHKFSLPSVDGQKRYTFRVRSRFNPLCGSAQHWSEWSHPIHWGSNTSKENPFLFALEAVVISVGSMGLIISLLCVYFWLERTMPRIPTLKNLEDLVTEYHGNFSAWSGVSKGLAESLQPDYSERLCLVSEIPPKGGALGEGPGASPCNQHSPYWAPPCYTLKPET
# Assay name: cell-based or functional assay
Metric name: pSTAT3 (MFI) in CD8 T cells at 1 µM
Write the value in MFI as a bare number.

Qu. Name the reported pSTAT3 (MFI) in CD8 T cells at 1 µM value associated with the binder hIL10Ra_VHH14-hIL2Rg_VHH19, linker GGGS, tag Fc (Fc fusion, not shown: a dimerising Fc or GST) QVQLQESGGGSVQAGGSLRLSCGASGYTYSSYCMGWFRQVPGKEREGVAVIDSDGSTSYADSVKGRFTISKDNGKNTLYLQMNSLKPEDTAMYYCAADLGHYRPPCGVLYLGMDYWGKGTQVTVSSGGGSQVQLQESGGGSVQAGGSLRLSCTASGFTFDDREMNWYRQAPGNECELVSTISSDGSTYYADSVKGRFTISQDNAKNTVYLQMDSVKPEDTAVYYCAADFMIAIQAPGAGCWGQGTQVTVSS
Ans. 9320
